As shown below, each of these compounds has a reported inhibition at 11210 g/ha value.
# System: Yellow nutsedge
# Procedure Text: Post-emergence herbicide test
# Format: in vivo
# Assay Context: Cyperus, 11.21 kg/ha, read-out: % plant inhibition (Yens)
Reported Metric: inhibition at 11210 g/ha (%)

1. Cn1nc(C(F)(F)F)c(Cl)c1-c1ccc(Cl)cc1
0
2. Cn1nc(C(F)(F)F)c(Cl)c1-c1ccc(F)cc1F
0
3. Cn1nc(C(F)(F)F)c(Cl)c1-c1cc([N+](=O)[O-])c(F)cc1F
0
4. COc1cc(F)c(-c2c(Cl)c(C(F)(F)F)nn2C)cc1[N+](=O)[O-]
0
5. Cc1cc(-c2c(Cl)c(C(F)(F)F)nn2C)c(F)cc1Cl
0
6. C#CCOc1cc(-c2nn(C)c(C(F)(F)Cl)c2Cl)c(F)cc1Cl
70
7. Cn1nc(C(F)(F)Cl)c(Cl)c1-c1ccc(Cl)cc1
20
8. Cn1nc(C(F)F)c(Cl)c1-c1cc(F)ccc1F
0
9. Cc1cc(-c2nn(C)c(C(F)(F)F)c2Cl)c(F)cc1Cl
20
10. COc1cc(F)c(-c2c(Cl)c(C(F)(F)F)nn2C)cc1F
0
11. C#CCOc1cc(-c2nn(C)c(C(F)(F)F)c2Cl)c(F)cc1Cl
20
12. CCS(=O)(=O)N(c1cc(-c2nn(C)c(C(F)(F)F)c2Cl)c(Cl)cc1Cl)S(=O)(=O)CC
0
13. Cn1nc(-c2ccc([N+](=O)[O-])cc2)c(Cl)c1C(F)(F)F
50
14. Cn1nc(-c2cc(F)c(Cl)cc2Cl)c(Cl)c1C(F)(F)F
10
15. CC(=O)OCc1cc(-c2nn(C)c(C(F)(F)F)c2Cl)c(F)cc1Cl
20
16. Cn1nc(-c2cc(C(Br)Br)c(Cl)cc2F)c(Cl)c1C(F)(F)F
30
17. Cn1nc(-c2cc(N3CCOCC3)c(Cl)cc2F)c(Cl)c1C(F)(F)F
10
18. Cn1nc(-c2cc(N(S(C)(=O)=O)S(C)(=O)=O)c(Cl)cc2Cl)c(Cl)c1C(F)(F)F
10
19. Cn1nc(-c2cc(Oc3ccc(C(F)(F)F)cc3Cl)c(Cl)cc2F)c(Cl)c1C(F)(F)F
0
20. CC(C)OC(=O)COCc1cc(-c2nn(C)c(C(F)(F)F)c2Cl)c(F)cc1Cl
20

====

As shown below, each of these compounds has a reported inhibition at 11210 g/ha value.
# Tested on: Seedling johnsongrass
# Procedure Text: Pre-emergence herbicide test
# Type: in vivo
# Assay Context: Sorghum halepense, 11.21 kg/ha, read-out: % plant inhibition (Sejg)
Reported Metric: inhibition at 11210 g/ha (%)

1. Cn1nc(C(F)(F)F)c(Cl)c1-c1ccc(Cl)cc1
90
2. Cn1nc(-c2ccc(Cl)cc2)c(Cl)c1C(F)(F)Cl
100
3. CC(C)OC(=O)COCc1cc(-c2nn(C)c(C(F)(F)F)c2Cl)c(F)cc1Cl
80
4. Cn1nc(-c2cc(CC(N)=O)c(Cl)cc2F)c(Cl)c1C(F)(F)F
90
5. COc1cc(-c2c(Cl)c(C(F)(F)F)nn2C)c(F)cc1N
0
6. Cn1nc(-c2cc(CBr)c(Cl)cc2F)c(Cl)c1C(F)(F)F
90
7. COc1cc(F)c(-c2c(Cl)c(C(F)(F)F)nn2C)cc1[N+](=O)[O-]
0
8. Cn1nc(C(F)(F)F)c(Cl)c1-c1cc(F)c([N+](=O)[O-])cc1F
80
9. Cn1nc(-c2ccc(Cl)cc2Cl)c(Cl)c1C(F)(F)F
100
